So I've got a bunch of molecules here, and I need their Herbicidal rating CYPIR values.
System: CYPIR (Rice Flatsedge)
Experiment: Postemergence weed control under flooded paddy conditions
Format: in vivo, Cyperus iria
Details: Rate 0.1250 kg/ha, postemergence weeds, rated 3 to 4 weeks after treatment
No unit in the answer, only the number.

Summary: CCOC(=O)C(c1ccc(Cl)cc1)N1C(=O)CSC1=Nc1cc(-n2c(=O)cc(C(F)(F)F)n(C)c2=O)c(F)cc1Cl (racemic) , CYPIR (Rice Flatsedge), Herbicidal rating CYPIR = 2.0

// returns Herbicidal rating CYPIR for CCOC(=O)CN1C(=O)C(CC(=O)OCCF)SC1=Nc1cc(-n2c(=O)cc(C(F)(F)F)n(C)c2=O)c(F)cc1Cl (stereo not shown) with CYPIR (Rice Flatsedge); value = 3.0

Tested system CYPIR (Rice Flatsedge); Herbicidal rating CYPIR recorded for Cn1c(C(F)(F)F)cc(=O)n(-c2cc(N=C3SCC(=O)N3CC(=O)OCC#N)c(Cl)cc2F)c1=O was 4.0

Let me check: COC(=O)[C@H](Cc1ccccc1)N1C(=O)CS/C1=N/c1cc(-n2c(=O)cc(C(F)(F)F)n(C)c2=O)c(F)cc1Cl , system CYPIR (Rice Flatsedge), measured Herbicidal rating CYPIR is 7.0

###

Tested on: GALAP (Galium)
Assay: Preemergence herbicidal evaluation
Type: in vivo, Galium aparine
Conditions: rate 0.2500 kg/ha; rated 4-5 weeks after treatment
Please provide measured Preemergence herbicidal rating GALAP for the entries that follow.
Could you respond with only the numeric value?

Summary for this compound, C=CCN1C(=O)C(CC(=O)O)SC1=Nc1cc(-n2c(=O)cc(C(F)(F)F)n(C)c2=O)c(F)cc1Cl (stereo not shown) : Preemergence herbicidal rating GALAP is 9.0

Query Cn1c(C(F)(F)F)cc(=O)n(-c2cc(/N=C3/SCC(=O)N3CC(=O)O)c(Cl)cc2F)c1=O yields Preemergence herbicidal rating GALAP of 7.0

GET /value?item= CCOC(=O)CN1C(=O)C(CC(=O)NS(=O)(=O)C(C)C)SC1=Nc1cc(-n2c(=O)cc(C(F)(F)F)n(C)c2=O)c(F)cc1Cl (stereo not shown) &field=Preemergence herbicidal rating GALAP returns 7.0

Looking up CCOC(=O)CN1CCSC1=Nc1cc(-n2nc(C)n(C(F)F)c2=O)c(F)cc1Cl , I see its Preemergence herbicidal rating GALAP listed as 9.0

###

Test system: ORYSAT (Rice, Tebonnet)
Assay: Preemergence herbicidal evaluation
Assay type: in vivo, Oryza sativa, (L.) Tebonnet
Conditions: rate 0.2500 kg/ha; rated 4-5 weeks after treatment
Measurement Label: ORYSAT preemergence herbicidal rating

// ORYSAT preemergence herbicidal rating value for CC1SC(=Nc2cc(-n3c(=O)cc(C(F)(F)F)n(C)c3=O)c(F)cc2Cl)N(C)C1=O (centres unmarked) [Compound 9] : 9.0

Kindly note the recorded ORYSAT preemergence herbicidal rating for CCOC(=O)CN1C(=O)C(=C2CCCC2)SC1=Nc1cc(-n2c(=O)cc(C(F)(F)F)n(C)c2=O)c(F)cc1Cl [Compound 18] , which is 0.0

ORYSAT preemergence herbicidal rating in this record for CCOC(=O)CN1C(=O)C(=C(C)C)S/C1=N/c1cc(-n2c(=O)cc(C(F)(F)F)n(C)c2=O)c(F)cc1Cl [Compound 20] : 0.0

# ORYSAT preemergence herbicidal rating (compound: CCC1SC(=Nc2cc(-n3c(=O)cc(C(F)(F)F)n(C)c3=O)c(F)cc2Cl)N(C)C1=O (centres unmarked) [Compound 10] ) is 7.5

Sample CN1C(=O)C(F)SC1=Nc1cc(N2C(=O)C3=C(CCCC3)C2=O)c(F)cc1Cl (centres unmarked) [Compound 5] ; ORYSAT preemergence herbicidal rating observed: 2.0

###

System: CYPSE (Flatsedge)
Test: Preemergence weed control under flooded paddy conditions
Type: in vivo, Cyperus serotinus
Conditions: 0.2500 kg/ha, rated 3-4 weeks after treatment
Measurement Label: Herbicidal rating CYPSE
Would you mind answering with just the numeric figure?

C=CCN1C(=O)CSC1=Nc1cc(-n2c(=O)cc(C(F)(F)F)n(C)c2=O)c(F)cc1Cl yielded Herbicidal rating CYPSE of 9.0

Input C=CCN1C(=O)C(CC(=O)Nc2ccccc2)SC1=Nc1cc(-n2c(=O)cc(C(F)(F)F)n(C)c2=O)c(F)cc1Cl (stereo not drawn) . Output Herbicidal rating CYPSE: 0.0

For reference, reported Herbicidal rating CYPSE for CCOC(=O)CN1C(=O)C(CC(=O)NC)SC1=Nc1cc(-n2c(=O)cc(C(F)(F)F)n(C)c2=O)c(F)cc1Cl (stereo not drawn) stands at 3.0

###

System: GLXMAW (Soybean, Williams)
Assay: Preemergence herbicidal evaluation
Assay type: in vivo, Glycine max, (L.) Merr. cv Williams
Conditions: rate 0.1250 kg/ha; rated 4-5 weeks after treatment
Exercise: for every item that follows, state its recorded Preemergence herbicidal rating GLXMAW.
Please reply with the number alone, leaving off any unit.

Reported Preemergence herbicidal rating GLXMAW of CCCCOC(=O)CN1C(=O)CSC1=Nc1cc(-n2c(=O)cc(C(F)(F)F)n(C)c2=O)c(F)cc1Cl : 3.0

# Preemergence herbicidal rating GLXMAW of Cn1c(C(F)(F)F)cc(=O)n(-c2cc(N=C3SCC(=O)N3C3CCOC3=O)c(Cl)cc2F)c1=O (stereo not drawn) = 1.0

For CCOC(=O)C(c1ccc(Cl)cc1)N1C(=O)CSC1=Nc1cc(-n2c(=O)cc(C(F)(F)F)n(C)c2=O)c(F)cc1Cl (racemic) the compound record lists Preemergence herbicidal rating GLXMAW as 0.0

Value of measured Preemergence herbicidal rating GLXMAW for the entry Cn1c(C(F)(F)F)cc(=O)n(-c2cc(N=C3SCC(=O)N3CC(=O)OCC#N)c(Cl)cc2F)c1=O : 7.5

Recorded result, C=CCN1C(=O)C(CC(=O)O)SC1=Nc1cc(-n2c(=O)cc(C(F)(F)F)n(C)c2=O)c(F)cc1Cl (stereo not drawn) , Preemergence herbicidal rating GLXMAW: 2.0

According to the records, this compound COCCOC(=O)CN1C(=O)CSC1=Nc1cc(-n2c(=O)cc(C(F)(F)F)n(C)c2=O)c(F)cc1Cl displays Preemergence herbicidal rating GLXMAW of 2.0

Reported Preemergence herbicidal rating GLXMAW for C=CCN1C(=O)C(CC(=O)NS(=O)(=O)C(C)C)SC1=Nc1cc(-n2c(=O)cc(C(F)(F)F)n(C)c2=O)c(F)cc1Cl (stereo not drawn) was 0.0

Entry under test: O=C(O)CC1SC(=Nc2cc(N3C(=O)C4=C(CCCC4)C3=O)c(F)cc2Cl)N(CC(=O)O)C1=O (stereo not drawn) . Its Preemergence herbicidal rating GLXMAW was 0.0

Preemergence herbicidal rating GLXMAW reading for C#CCOC(=O)CC1SC(=Nc2cc(-n3c(=O)cc(C(F)(F)F)n(C)c3=O)c(F)cc2Cl)N(CC(=O)OCC)C1=O (stereo not drawn) : 4.0

For Cn1c(C(F)(F)F)cc(=O)n(-c2cc(N=C3SCC(=O)N3CC(=O)OCC3CC3)c(Cl)cc2F)c1=O the compound record lists Preemergence herbicidal rating GLXMAW as 0.0

Note to self: Preemergence herbicidal rating GLXMAW recorded for Cn1c(C(F)(F)F)cc(=O)n(-c2cc(N=C3SCC(=O)N3CCC(=O)O)c(Cl)cc2F)c1=O [Compound 31] was 5.0

// field: Preemergence herbicidal rating GLXMAW; key: CCOC(=O)CN1C(=O)C(Cc2ccccc2OC(C)C(=O)O)S/C1=N/c1cc(-n2c(=O)cc(C(F)(F)F)n(C)c2=O)c(F)cc1Cl (stereo not drawn) ; value = 2.0

Preemergence herbicidal rating GLXMAW in this record for CCOP(=O)(CN1C(=O)CSC1=Nc1cc(-n2c(=O)cc(C(F)(F)F)n(C)c2=O)c(F)cc1Cl)OCC : 0.0

In plain terms, CCOC(=O)CN1C(=O)C(Cc2ccccc2OC(C)C(=O)OC)SC1=Nc1cc(-n2c(=O)cc(C(F)(F)F)n(C)c2=O)c(F)cc1Cl (stereo not drawn) has a documented Preemergence herbicidal rating GLXMAW of 0.0

Consider C=CCN1C(=O)C(CC(=O)OC(C)C)SC1=Nc1cc(-n2c(=O)cc(C(F)(F)F)n(C)c2=O)c(F)cc1Cl (stereo not drawn) . Its measured Preemergence herbicidal rating GLXMAW is 0.5

The recorded Preemergence herbicidal rating GLXMAW for CCOC(=O)CN1C(=O)C(CC(=O)NS(=O)(=O)C(C)C)SC1=Nc1cc(-n2c(=O)cc(C(F)(F)F)n(C)c2=O)c(F)cc1Cl (stereo not drawn) is 1.0

Short answer for CCOC(=O)CN1C(=O)C(C(=O)OCC)SC1=Nc1cc(-n2c(=O)cc(C(F)(F)F)n(C)c2=O)c(F)cc1Cl (stereo not drawn) : Preemergence herbicidal rating GLXMAW was 0.0

Looking up Cn1c(C(F)(F)F)cc(=O)n(-c2cc(N=C3SCC(=O)N3CCC(=O)O)c(Cl)cc2F)c1=O [Compound 30] , I found its Preemergence herbicidal rating GLXMAW recorded as 1.0

// provenance: patent US20020137929A1
